B1: Hairpin Ribozyme (parent)
chain: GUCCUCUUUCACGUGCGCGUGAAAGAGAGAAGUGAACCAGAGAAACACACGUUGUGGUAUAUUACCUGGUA

Variants of: B1
assayName: self-cleavage, relative activity (ratio to wild type); higher = more cleavage; co-transcriptional
// map self-cleavage to label using lower segment = under 0.2, middle segment = from 0.2 up to 0.6, upper segment = 0.6 and over

Field: example entries. Status: answers known.
G29C A47U: lower segment
U14A A36G: upper segment
G19C G21U: upper segment
A35G A59G: middle segment
G19A A41U: upper segment
U14A G54A: middle segment

*Q* Which bin should I file A23G A35C under?
*A* upper segment

*Q* Which bin should I file G13C A43U under?
*A* lower segment

*Q* Which bin should I file C12U U58C under?
*A* upper segment

*Q* Which bin should I file G25C G42A under?
*A* lower segment
